Data origin, for the record: patent US6399824B1

biological target: rNHE3 (Rattus norvegicus, UniProt P26433); assay: Recovery of intracellular pH (pHi) after acidification, BCECF fluorescence, NHE inhibition; conditions: pH recovery recorded 3 minutes for NHE3; bicarbonate-free conditions
Sequence (P26433 29-831): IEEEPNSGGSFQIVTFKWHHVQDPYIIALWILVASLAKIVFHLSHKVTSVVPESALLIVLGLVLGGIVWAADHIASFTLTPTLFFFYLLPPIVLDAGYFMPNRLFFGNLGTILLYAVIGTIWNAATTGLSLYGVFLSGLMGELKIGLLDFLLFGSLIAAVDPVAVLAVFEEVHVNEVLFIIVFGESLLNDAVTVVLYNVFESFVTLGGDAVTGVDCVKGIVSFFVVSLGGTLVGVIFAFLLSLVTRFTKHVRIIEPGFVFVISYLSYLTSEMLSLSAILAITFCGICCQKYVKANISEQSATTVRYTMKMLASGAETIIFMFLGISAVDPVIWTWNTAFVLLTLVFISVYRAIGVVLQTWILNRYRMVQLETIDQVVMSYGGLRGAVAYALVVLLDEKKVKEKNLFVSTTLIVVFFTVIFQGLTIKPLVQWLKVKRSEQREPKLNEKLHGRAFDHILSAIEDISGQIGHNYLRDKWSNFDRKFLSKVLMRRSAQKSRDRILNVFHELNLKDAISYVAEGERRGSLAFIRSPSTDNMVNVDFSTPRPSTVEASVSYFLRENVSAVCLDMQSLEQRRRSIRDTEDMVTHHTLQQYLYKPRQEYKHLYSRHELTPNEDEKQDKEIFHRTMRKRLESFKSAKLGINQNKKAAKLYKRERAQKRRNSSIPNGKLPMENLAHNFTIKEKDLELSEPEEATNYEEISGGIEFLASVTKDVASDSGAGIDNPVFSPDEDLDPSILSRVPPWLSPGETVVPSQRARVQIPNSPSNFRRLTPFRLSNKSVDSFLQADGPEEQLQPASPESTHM
Where a name gives a salt, the structure may show the parent alone.
observation.type: pIC50
Just the number, please; pIC50 means minus log10 of the concentration in mol/L.

(Q) I would be grateful if you could share the reported pIC50 for C/C(=C\c1ccc(Nc2ccc(S(=O)(=O)N(C)C3CCN(C)C3)cc2)cc1)C(=O)N=C(N)N.Cl.Cl (stereo not shown) [Example 13, HCl salt] .
(A) 6.23

(Q) Fill in: pIC50 of C/C(=C\c1ccc(Nc2ccc(S(=O)(=O)NCCN3CCCC3)cc2)cc1)C(=O)N=C(N)N.Cl.Cl [Example 11, HCl salt] is ___
(A) 6.07

(Q) I would be grateful if you could share the reported pIC50 for C/C(=C\c1cc(F)c(Oc2ccc(S(N)(=O)=O)cc2)c(F)c1)C(=O)N=C(N)N [Example 1, HCl salt] .
(A) 7.15

(Q) What value of pIC50 has been recorded for this entry: C/C(=C\c1ccc(Oc2ccc(S(N)(=O)=O)cc2)cc1)C(=O)N=C(N)N [Example 3, HCl salt]
(A) 6.89

(Q) Recorded pIC50 of C/C(=C\c1ccc(Nc2ccc(S(N)(=O)=O)cc2)cc1)C(=O)N=C(N)N [Example 4, trifluoroacetate] , please.
(A) 6.21

(Q) So what's the measured pIC50 for this one? CNC(=O)NS(=O)(=O)c1ccc(Oc2c(F)cc(/C=C(\C)C(=O)N=C(N)N)cc2F)cc1 [Example 8, HCl salt]
(A) 7.05

(Q) For the molecule C/C(=C\c1ccc(Nc2cccc(S(N)(=O)=O)c2)cc1)C(=O)N=C(N)N [Example 5, trifluoroacetate] , what pIC50 is on record?
(A) 5.92

----------
assay: Solubility by UV spectroscopy in 0.9% strength NaCl solution; assay type: physicochemical; conditions: 0.9% NaCl solution, saline or isotonic
Here the recorded solubility is given for each entry.
Quick reminder: number only, in µg/mL, skip the unit.

Illustrative cases are given below, each with its answer.
(Q) Field request: solubility | item: C/C(=C\c1ccc(Nc2ccc(S(=O)(=O)NCCN(C)C)cc2)cc1)C(=O)N=C(N)N.Cl.Cl [Example 10]
(A) 1280

(Q) What value of measured solubility is listed for C/C(=C\c1cc(F)c(Oc2ccc(S(=O)(=O)NCCN(C)C)cc2)c(F)c1)C(=O)N=C(N)N.Cl.Cl [Example 6] ?
(A) 1860

New cases:
(Q) Fill in the blank: the reported solubility of C/C(=C\c1ccc(Nc2ccc(S(=O)(=O)N(C)C3CCN(C)C3)cc2)cc1)C(=O)N=C(N)N.Cl.Cl (stereo not drawn) [Example 13] is ____.
(A) 3080

(Q) Given the molecule C/C(=C\c1ccc(Nc2ccc(S(=O)(=O)N3CCN(C)CC3)cc2)cc1)C(=O)N=C(N)N.Cl.Cl [Example 12] , what is its reported solubility?
(A) 1760

(Q) Given the entry C/C(=C\c1ccc(Nc2ccc(S(=O)(=O)NCCN3CCCC3)cc2)cc1)C(=O)N=C(N)N.Cl.Cl [Example 11] , report its measured solubility.
(A) 1520

----------
target: UniProt:P26433; assay: Recovery of intracellular pH (pHi) after acidification, BCECF fluorescence, NHE inhibition; conditions: pH recovery recorded 3 minutes for NHE3; bicarbonate-free conditions
IC50 overview
Return type: number; implicit unit nM.

(Q) Dear colleague, I am looking for the recorded IC50 of the following molecule: C/C(=C\c1cc(F)c(Oc2ccc(S(N)(=O)=O)cc2)c(F)c1)C(=O)N=C(N)N [Example 2, methanesulfonate]
(A) 20
